assay: in vivo; details: male, NRG, mouse, iv, total radioactivity, Biodistribution Small Intestine Mean
Numbered stars: 1 amine (or outer) side, 2 acyl side, 3 side chain; on linkers, the order of the positions; unused ones are H or OH. Square brackets hold non-standard residues; d marks the D form. Peptide text beside a SMILES is read from it. * marks the point of attachment. DOTA = O=C(O)CN1CCN(CC(=O)O)CCN(CC(=O)*)CCN(CC(=O)O)CC1; Leuψ(CH2N)ThzNH2 = CC(C)C[C@@H](CN1CSC[C@H]1C(N)=O)N*; X1 = O=C(CN1CCC(N[*:1])CC1)[*:2]; Tle = CC(C)(C)[C@H](N)C(=O)O
experimental_endpoint: tissue uptake at 1 h (%ID/g)

# compound, experimental_endpoint, observed_value
measured = [
    ("CC(C)C[C@@H](CN1CSC[C@H]1C(N)=O)NC(=O)[C@H](Cc1c[nH]cn1)NC(=O)CNC(=O)[C@@H](NC(=O)[C@H](C)NC(=O)[C@H](Cc1c[nH]c2ccccc12)NC(=O)[C@H](CCC(N)=O)NC(=O)[C@@H](Cc1ccccc1)NC(=O)CN1CCC(NC(=O)CN2CCN(CC(=O)O)CCN(CC(=O)O)CCN(CC(=O)O)CC2)CC1)C(C)(C)C [^68Ga-LW01158, metal not drawn] ({DOTA}-[X1][dF]QWA[Tle]GH-{Leuψ(CH2N)ThzNH2})", "tissue uptake at 1 h", 2.46),
    ("CC(C)C[C@H](NC(=O)[C@H](Cc1c[nH]cn1)NC(=O)CNC(=O)[C@@H](NC(=O)[C@H](C)NC(=O)[C@H](Cc1c[nH]c2ccccc12)NC(=O)[C@H](CCC(N)=O)NC(=O)[C@@H](Cc1ccccc1)NC(=O)CN1CCC(NC(=O)CN2CCN(CC(=O)O)CCN(CC(=O)O)CCN(CC(=O)O)CC2)CC1)C(C)(C)C)C(=O)N1CSC[C@H]1C(N)=O [^68Ga-LW01108, metal not drawn]", "tissue uptake at 1 h", 2.29),
    ("CC(C)C[C@H](NC(=O)[C@H](Cc1cnc[nH]1)N(C)C(=O)CNC(=O)[C@@H](NC(=O)[C@H](C)NC(=O)[C@H](Cc1c[nH]c2ccccc12)NC(=O)[C@H](CCC(N)=O)NC(=O)[C@@H](Cc1ccccc1)NC(=O)CN1CCC(NC(=O)CN2CCN(CC(=O)O)CCN(CC(=O)O)CCN(CC(=O)O)CC2)CC1)C(C)(C)C)C(=O)N1CSC[C@H]1C(N)=O [^68Ga-LW01110, metal not drawn]", "tissue uptake at 1 h", 2.11),
]

###

assay: in vivo; conditions: male, NRG, mouse, iv, total radioactivity, Biodistribution Testes Mean
Numbered stars: 1 amine (or outer) side, 2 acyl side, 3 side chain; on linkers, the order of the positions; unused ones are H or OH. Square brackets hold non-standard residues; d marks the D form. Peptide text beside a SMILES is read from it. * marks the point of attachment. DOTA = O=C(O)CN1CCN(CC(=O)O)CCN(CC(=O)*)CCN(CC(=O)O)CC1; Leuψ(CH2N)ThzNH2 = CC(C)C[C@@H](CN1CSC[C@H]1C(N)=O)N*; NMeH = CN[C@@H](Cc1c[nH]cn1)C(=O)O; X1 = O=C(CN1CCC(N[*:1])CC1)[*:2]; Tle = CC(C)(C)[C@H](N)C(=O)O; Thz = O=C(O)[C@@H]1CSCN1
Parameter: tissue uptake at 1 h. Scope: all listed entries.

# compound, readout_unit, tissue uptake at 1 h
rows = [
    ("CC(C)C[C@@H](CN1CSC[C@H]1C(N)=O)NC(=O)[C@H](Cc1c[nH]cn1)NC(=O)CNC(=O)[C@@H](NC(=O)[C@H](C)NC(=O)[C@H](Cc1c[nH]c2ccccc12)NC(=O)[C@H](CCC(N)=O)NC(=O)[C@@H](Cc1ccccc1)NC(=O)CN1CCC(NC(=O)CN2CCN(CC(=O)O)CCN(CC(=O)O)CCN(CC(=O)O)CC2)CC1)C(C)(C)C [^68Ga-LW01158, metal not drawn] ({DOTA}-[X1][dF]QWA[Tle]GH-{Leuψ(CH2N)ThzNH2})", "%ID/g", 0.24),
    ("CC(C)C[C@H](NC(=O)[C@H](Cc1cnc[nH]1)N(C)C(=O)CNC(=O)[C@@H](NC(=O)[C@H](C)NC(=O)[C@H](Cc1c[nH]c2ccccc12)NC(=O)[C@H](Cc1c[nH]cn1)NC(=O)[C@@H](Cc1ccccc1)NC(=O)CN1CCC(NC(=O)CN2CCN(CC(=O)O)CCN(CC(=O)O)CCN(CC(=O)O)CC2)CC1)C(C)(C)C)C(=O)N1CSC[C@H]1C(N)=O [^68Ga-LW01142, metal not drawn] ({DOTA}-[X1][dF]HWA[Tle]G[NMeH]L[Thz]-NH2)", "%ID/g", 1.28),
    ("CC(C)C[C@H](NC(=O)[C@H](Cc1c[nH]cn1)NC(=O)CNC(=O)[C@@H](NC(=O)[C@H](C)NC(=O)[C@H](Cc1c[nH]c2ccccc12)NC(=O)[C@H](CCC(N)=O)NC(=O)[C@@H](Cc1ccccc1)NC(=O)CN1CCC(NC(=O)CN2CCN(CC(=O)O)CCN(CC(=O)O)CCN(CC(=O)O)CC2)CC1)C(C)(C)C)C(=O)N1CSC[C@H]1C(N)=O [^68Ga-LW01108, metal not drawn]", "%ID/g", 0.16),
    ("CC(C)C[C@H](NC(=O)[C@H](Cc1cnc[nH]1)N(C)C(=O)CNC(=O)[C@@H](NC(=O)[C@H](C)NC(=O)[C@H](Cc1c[nH]c2ccccc12)NC(=O)[C@H](CCC(N)=O)NC(=O)[C@@H](Cc1ccccc1)NC(=O)CN1CCC(NC(=O)CN2CCN(CC(=O)O)CCN(CC(=O)O)CCN(CC(=O)O)CC2)CC1)C(C)(C)C)C(=O)N1CSC[C@H]1C(N)=O [^68Ga-LW01110, metal not drawn]", "%ID/g", 0.16),
    ("CC(C)C[C@H](NC(=O)[C@H](Cc1c[nH]cn1)N(C)C(=O)CNC(=O)[C@@H](NC(=O)[C@H](C)NC(=O)[C@H](Cc1c[nH]c2ccccc12)NC(=O)[C@H](CCC(N)=O)NC(=O)[C@@H](Cc1ccccc1)NC(=O)CN1CCC(NC(=O)CN2CCN(CC(=O)O)CCN(CC(=O)O)CCN(CC(=O)O)CC2)CC1)C(C)C)C(=O)N1CSC[C@H]1C(N)=O [^68Ga-LW01107, metal not drawn]", "%ID/g", 0.1),
]

Data provenance: patent US12246076B2
